test system: DENV; assay type: cell-based, dengue virus; conditions: read-out: EC50, DENV infection in MDDC
measured-endpoint: pEC50
Give bare numbers, as −log10 of the molar value.

Q: # return recorded pEC50 for entry COc1cc(O)c2c(c1)/C=C/C[C@H](O)[C@H](O)C(=O)/C=C\C[C@H](C)OC2=O
Result: 6.27

---

tested on: primary human monocyte derived dendritic cells (MDDC)
measured-endpoint: CC50 (µM)
Answers are plain numbers, in µM.

Q: Quick one: give measured CC50 for COc1cc(O)c2c(c1)/C=C/C[C@H](O)[C@H](O)C(=O)/C=C\C[C@H](C)OC2=O
Result: 5.49
